The origin of these recorded values is PubChem BioAssay (NCI).

test: NCI Yeast Anticancer Drug Screen. Data for the rad18 strain (AID 177); conditions: S. cerevisiae rad18 mutant growth inhibition; at 3.7 µM; active compounds read high
About 79,000 compounds went through this panel and 15% of them were active in at least one assay; those are over-represented in the sample as a whole.
Parameter Measured: growth inhibition (%)
The figure you give is taken to be in %; do not add the unit.

Below: 2 compounds and their reported growth inhibition.
Compound: CCOC(=O)/C=C1\CCCn2c1ncc(C(=O)OCC)c2=O
growth inhibition / %: 5

Compound: O=C(Nc1ccn(C2CC(O)C(COC(c3ccccc3)(c3ccccc3)c3ccccc3)O2)c(=O)n1)c1ccccc1 (stereo not given)
growth inhibition / %: 21

Tell me growth inhibition reported for O=C1C(C(O)(C(F)(F)F)C(F)(F)F)CCC1C(O)(C(F)(F)F)C(F)(F)F (stereo not given)
6

// Input: O=C(O)[C@H]1[C@@H](C2CCCCC2)O[C@@H](C2CCCCC2)O[C@H]1C(F)(F)F . Output its growth inhibition only.
-4

Consider the compound O=Cn1c2ccccc2c2ccccc21 . State its measured growth inhibition.
-32

###

# reported growth inhibition; entries follow
test: NCI Yeast Anticancer Drug Screen. Data for the rad50EPP+ strain (AID 151);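 further: 0% = growth of vehicle-treated control cultures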; conditions: S. cerevisiae rad50 mutant strain, at 3.7 µM, active compounds read high
The panel holds about 79,000 compounds, 15% with a hit somewhere; the sample as a whole holds those more often.
Entry rule: numbers only, all in %.

Solved cases (5 shown):
Molecule: CCOC(=O)c1[nH]c2cccc3c2c1CC(Br)C3=O (stereo unspecified)
Output Unit: %
Experimental Value: -1
--
Molecule: Nc1ccc2ncc(Nc3ccc(Cl)c(Cl)c3)nc2c1
Output Unit: %
Experimental Value: -6
--
Molecule: CCC(C)C(=O)OCC(=O)c1ccc(-c2ccccc2)cc1 (stereo unspecified)
Output Unit: %
Experimental Value: 3
--
Molecule: OC(c1ccc(Br)cc1)(c1cccs1)C1CC1 (stereo unspecified)
Output Unit: %
Experimental Value: 35
--
Molecule: Cc1[nH]nc(C(F)(F)F)c1N=NN(C)C
Output Unit: %
Experimental Value: 35

Now, please, on to the next molecule.
For Cc1ccc2nc(N/N=C/c3ccc(C)s3)cc(C)c2c1 , write its growth inhibition.
-5

###

experiment: NCI Yeast Anticancer Drug Screen. Data for the CLN2oe strain (AID 163);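 further: 0% = growth of vehicle-only control cultures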; conditions: S. cerevisiae CLN2oe strain, at 3.7 µM, active compounds read high
The panel holds about 79,000 compounds, 15% with a hit somewhere; the sample as a whole holds those more often.
Reported growth inhibition values for the following compounds.
Could you give me the number in %? Just the number is fine.

Compound: C#CC1=CC(=O)C(OC)=CC1=O
Parameter Measured: growth inhibition
Experimental Value: 14
--
Compound: OC(c1ccc(Br)cc1)(c1cccs1)C1CC1 (stereo unspecified)
Parameter Measured: growth inhibition
Experimental Value: 2
--
Compound: CCN(CC)CCSc1c2ccccc2nc2cc(NCC(=O)Nc3ccccc3-c3ccccc3NC(=O)CNc3ccc4c(SCCN(CC)CC)c5ccccc5nc4c3)ccc12
Parameter Measured: growth inhibition
Experimental Value: 7

For the compound CN(C)/N=N/c1nc[nH]c1C(N)=O , give its measured growth inhibition value.
2

Give the reported value of growth inhibition for this record: COc1ccc(CCN2C(=O)C=CC2=O)cc1OC
33

Item [Cl][Pt+2][Cl].[NH-]CC1(C[NH-])CCCCC1 : provide growth inhibition
14

###

test: NCI Yeast Anticancer Drug Screen. Data for the rad50EPP+ strain (AID 151);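 further: 0% = growth of vehicle-treated control cultures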; settings: S. cerevisiae rad50 mutant strain, at 33.0 µM
About 79,000 compounds went through this panel and 15% of them were active in at least one assay; those are over-represented in the sample as a whole. The source made the active and inactive calls. Cut-off read from the data, not from the text of the source: active = growth inhibition above about 70%; inactive = the rest.
Your answer must be one of the following: active, inactive

# example entries with known answers
Compound: CN(C)c1ccc(C(c2ccc(Cl)cc2)c2ccc(N(C)C)cc2)cc1
Assigned Category: inactive

Compound: COc1cc(C(C)C(C(=O)O)C(=O)C(=O)O)cc(OC)c1OC (stereo unspecified)
Assigned Category: inactive

Compound: O=Cn1c2ccccc2c2ccccc21
Assigned Category: inactive

Compound: O=C1c2ccccc2C2CCC1c1ccccc12 (stereo unspecified)
Assigned Category: inactive

Compound: CN(C)CCNC(=O)c1cccc2nc3c(ccc4ccccc43)nc12
Assigned Category: active

Compound: CCCCCC(=O)C(C)(c1nc2n(c1O)/C(=N/C(=O)Nc1ccc(Cl)cc1)N=N2)c1nc2n(c1O)/C(=N/C(=O)Nc1ccc(Cl)cc1)N=N2
Assigned Category: inactive

Answer briefly: the call reported for Cc1cc(NC(=S)SCc2ccc(Cl)cc2)ccc1Cl in this assay.
active

Please share the test call associated with Clc1ccc(C(c2ccc(Cl)cc2)N2CCNCC2)cc1 .
inactive

###

experiment: NCI Yeast Anticancer Drug Screen. Data for the mlh1 strain (AID 171);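 further: 0% = growth of vehicle-treated control cultures of the same strain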; conditions: S. cerevisiae mlh1 strain growth inhibition; at 100.0 µM
Compounds without any hit were thinned out: in the full panel of roughly 79,000, 15% have a hit. Active and inactive are the calls of the source. Rule as the data show it: active = growth inhibition above about 70%; inactive = the rest.
Write down one outcome, taken from y = active, n = inactive

Take a look at these entries with their results.
Compound: NCC(O)CSCc1ccc(Cl)cc1 (stereo unspecified)
Assigned Category: n

Compound: Cc1cnc(/C=N\NC(N)=S)c2cccc(N)c12
Assigned Category: y

Compound: O=C(Nn1c(-c2ccccc2)nc2ccccc2c1=O)c1ccc(Cl)cc1
Assigned Category: y

Compound: CCOC(=O)c1[nH]c2cccc3c2c1CC(Br)C3=O (stereo unspecified)
Assigned Category: y

Compound: CCC(C)C(=O)OCC(=O)c1ccc(-c2ccccc2)cc1 (stereo unspecified)
Assigned Category: n

We next turn to a different compound, shown below.
Entry COc1cc(NCCCCCNC(C)C)c2ncccc2c1Cl : call = ?
n

###

assay: NCI Yeast Anticancer Drug Screen. Data for the rad14 strain (AID 159);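 further: 0% = growth of vehicle-treated control cultures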; conditions: S. cerevisiae rad14 strain growth inhibition; at 1.2 µM; active compounds read high
This is part of a sample that, as a whole, favours compounds with a hit. Of some 79,000 tested, about 15% had one in any assay.
# Lookup of reported growth inhibition keyed by entry
Respond with the bare value in %.

Reference set (5 entries):
Compound: c1cncc(C(Nc2cccc3cccnc23)Nc2cccc3cccnc23)c1
growth inhibition / %: 0

Compound: CN(Cc1cccc2ccccc12)Cc1cccc2ccccc12
growth inhibition / %: 0

Compound: O=C(O)[C@H]1[C@@H](C2CCCCC2)O[C@@H](C2CCCCC2)O[C@H]1C(F)(F)F
growth inhibition / %: -1

Compound: COC1=C(N=[N+]=[N-])C(=O)c2ncccc2C1=O
growth inhibition / %: -2

Compound: CCN(CC)CCSc1c2ccccc2nc2cc(NCC(=O)Nc3ccccc3-c3ccccc3NC(=O)CNc3ccc4c(SCCN(CC)CC)c5ccccc5nc4c3)ccc12
growth inhibition / %: -14

For the compound CC(C)c1ccc(C2NC(=S)NC3=C2c2ccccc2C3=O)cc1 (stereo unspecified) , report growth inhibition.
-8

Please give the documented growth inhibition of c1ccc2cc(OCC3CO3)c(OCC3CO3)cc2c1 (stereo unspecified)
-21

###

assay: NCI Yeast Anticancer Drug Screen. Data for the mlh1 strain (AID 171);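 further: 0% = growth of vehicle-treated control cultures of the same strain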; conditions: S. cerevisiae mlh1 strain growth inhibition; at 1.2 µM; active compounds read high
The panel holds about 79,000 compounds, 15% with a hit somewhere; the sample as a whole holds those more often.
Parameter Measured: growth inhibition (%)
Entry rule: numbers only, all in %.

Answered cases to consult:
Smiles Text: c1cncc(C(Nc2cccc3cccnc23)Nc2cccc3cccnc23)c1
Output Unit: %
Experimental Value: 3
--
Smiles Text: CCN(CC)CCSc1c2ccccc2nc2cc(NCC(=O)Nc3ccccc3-c3ccccc3NC(=O)CNc3ccc4c(SCCN(CC)CC)c5ccccc5nc4c3)ccc12
Output Unit: %
Experimental Value: -12
--
Smiles Text: CNc1ccc2[nH]c3ccccc3c2c1
Output Unit: %
Experimental Value: 3

Pending compound:
Tell me measured growth inhibition for CC1=Cc2ccc(C)cc2C(=O)C1=O please.
12

###

# growth inhibition annotations
test: NCI Yeast Anticancer Drug Screen. Data for the sgs1 strain (AID 173);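 further: 0% = growth of vehicle-only control cultures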; settings: S. cerevisiae sgs1 mutant, at 33.0 µM, active compounds read high
This is part of a sample that, as a whole, favours compounds with a hit. Of some 79,000 tested, about 15% had one in any assay.
Numbers only here, please. The scale is %.

Molecule: COc1cc(C(C)C(C(=O)O)C(=O)C(=O)O)cc(OC)c1OC (stereo not given)
growth inhibition / %: 2
//
Molecule: COc1ccc(/C=C2\CCc3ccccc3C2=O)cc1OC
growth inhibition / %: 35
//
Molecule: CCC(C)/C(C)=N/NC(N)=O (stereo not given)
growth inhibition / %: 3
//
Molecule: CCN(CC)c1ccc(N=Nc2cc(S(=O)(=O)O)ccc2O)c(O)c1
growth inhibition / %: -1

Identify measured growth inhibition associated with CCC(C)C(=O)OCC(=O)c1ccc(-c2ccccc2)cc1 (stereo not given)
-3

Give the reported growth inhibition for this molecule. O=c1[nH]c(=O)n(CCCO)cc1F
-3

For the molecule COc1cc(C(C)(C)C)cc(OC)c1C(O)(c1c(OC)cc(C(C)(C)C)cc1OC)c1c(OC)cc(C(C)(C)C)cc1OC , give its reported growth inhibition.
95

Return the recorded growth inhibition value; entry: O=C1c2ccccc2C2CCC1c1ccccc12 (stereo not given)
18

Recall and state the measured growth inhibition for Nc1cccc2cc(Cl)cnc12 .
0

// fetch growth inhibition given entry O=C1c2ccccc2C(=O)C1C(c1ccc(F)cc1)C1C(=O)c2ccccc2C1=O
54

Given CCCCCCCCCCCCCCCCOCC(Cl)COP(=O)(O)OP(=O)(O)OCC1OC(n2cnc3c(N)ncnc32)C(O)C1O (stereo not given) , respond with its growth inhibition.
95

Fill in growth inhibition for record O=C1C(Br)=CC(Br)(Br)C=C1Br
96

Write down growth inhibition measured for item Cc1cccc(N2CCN(C(=O)/C(=C/c3ccccc3)NC(=O)c3ccccc3)CC2)c1
53

Given the molecule NCC(O)CSCc1ccc(Cl)cc1 (stereo not given) , write its reported growth inhibition.
7
